experimentalSystem: Aspartate--tRNA(Asp/Asn) ligase (Mycobacterium tuberculosis (strain ATCC 25618 / H37Rv))
Sequence (whole entry): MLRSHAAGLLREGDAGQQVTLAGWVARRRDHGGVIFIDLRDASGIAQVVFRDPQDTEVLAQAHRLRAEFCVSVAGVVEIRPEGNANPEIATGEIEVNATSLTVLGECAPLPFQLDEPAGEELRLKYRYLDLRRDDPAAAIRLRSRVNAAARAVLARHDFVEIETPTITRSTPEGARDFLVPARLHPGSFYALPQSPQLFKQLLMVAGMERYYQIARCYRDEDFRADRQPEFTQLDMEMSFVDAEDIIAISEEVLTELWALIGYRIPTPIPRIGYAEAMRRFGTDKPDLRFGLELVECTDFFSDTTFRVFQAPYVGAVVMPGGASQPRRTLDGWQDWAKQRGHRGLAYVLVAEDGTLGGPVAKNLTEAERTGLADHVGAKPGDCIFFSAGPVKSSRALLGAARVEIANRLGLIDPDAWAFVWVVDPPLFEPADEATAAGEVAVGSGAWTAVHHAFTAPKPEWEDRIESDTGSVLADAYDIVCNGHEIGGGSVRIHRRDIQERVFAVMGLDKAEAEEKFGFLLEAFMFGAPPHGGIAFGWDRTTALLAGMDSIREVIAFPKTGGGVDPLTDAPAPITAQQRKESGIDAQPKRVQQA
assayNotes: Assay for Asp RNA synthetase-1 from Mycobacterium tuberculosis
Assay type: functional
Parameters: scale not given: in the data most compounds retested in dose-response had high values
testParameters: 30 µM
observedProperty: Percent Effect (%)
Please give a number only; it is taken to be in %.

1) CCc1nc(C2CCCN(C(=O)c3ccc4c(c3)nnn4C)C2)no1 (stereo unspecified): 4.32
2) O=C(Cn1nc2c(cc1=O)CSCC2)NC(Cc1ccccc1)C(=O)O (stereo unspecified): 0.581
3) O=C(c1cccnc1N1CCOCC1)N1CCCC1Cn1cccn1 (stereo unspecified): -2.94
4) O=C(CCC1CCCO1)NS(=O)(=O)c1ccc(Cl)cc1 (stereo unspecified): -1.43
5) Cc1ccccc1CSc1nc(N)cc(N2C[C@H](O)[C@@H](N(C)C)C2)n1: 3.57
6) Cc1cnn(CC2CCCN2Cc2nnsc2Cl)c1 (stereo unspecified): -2.88
7) COC(=O)c1ccc(N2CCN(CCN3CCOCC3)C(C)C2)cc1 (stereo unspecified): -8.26
8) Cc1nc(COC[C@@H]2CC[C@H]3[C@H](CCN3S(C)(=O)=O)O2)cs1: 6.16
9) COCCNC(=O)Cn1nc(C(C)C)c2cnn(C(C)(C)C)c2c1=O: -1.87
10) Cc1nc(N2CCOCC2)nc2c1CCN(C(=O)NC1CCCC1)CC2: 2.29

Continue with the next compound.
Q: Return Percent Effect measured with Aspartate--tRNA(Asp/Asn) ligase (Mycobacterium tuberculosis (strain ATCC 25618 / H37Rv)) given this compound: CN(Cc1ccc(Cl)s1)C1CCCN(c2cccnn2)C1 (stereo unspecified)
A: 2.31
